molecular target: SULT1E1 (Homo sapiens, UniProt P49888); construct: made in house; host or cells: E. coli; experiment: Inhibition of SULT1E1 measured with the FPIA-based assay; assay type: biochemical
Sequence (P49888 whole entry, species assumed): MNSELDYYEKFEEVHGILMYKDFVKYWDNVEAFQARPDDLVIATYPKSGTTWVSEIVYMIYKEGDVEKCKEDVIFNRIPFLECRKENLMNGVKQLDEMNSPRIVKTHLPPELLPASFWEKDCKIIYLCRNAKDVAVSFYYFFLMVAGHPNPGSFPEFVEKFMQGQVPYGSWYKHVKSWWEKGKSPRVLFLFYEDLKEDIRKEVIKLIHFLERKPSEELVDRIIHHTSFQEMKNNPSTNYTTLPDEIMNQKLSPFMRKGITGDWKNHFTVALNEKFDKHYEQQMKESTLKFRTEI
Measure: pKi
Scale: negative log10 of molar concentration, which is what pKi denotes.

So, "O=[N+]([O-])c1cc(Cl)c(O)c(Cl)c1" ? Its pKi was 2.11

* * *

Reported IC50 values for a set of compounds
molecular target: polyclonal antibody raised against a mixture of UTP and UDP conjugated to KLH (UGT-1); assay: Competitive FP displacement of UTP tracers from anti-UDP/UTP antibody by uridine nucleotides; format: binding, rabbit; conditions: 2 nM Alexa 488-5-aminoalkynyl-UTP tracer, UGT-1 antibody; read-out: half maximal values (IC50) for competing off the tracer
Number in µM, nothing else.

# Sample smiles, Unit label, IC50
data = [
    ("O=c1ccn([C@@H]2O[C@H](COP(=O)(O)OP(=O)(O)O)[C@@H](O)[C@H]2O)c(=O)[nH]1", "µM", 15),
]

So, "O=c1ccn([C@@H]2O[C@H](COP(=O)(O)OP(=O)(O)OP(=O)(O)O)[C@@H](O)[C@H]2O)c(=O)[nH]1" ? Its IC50 was 5

* * *

system: Protein G-purified Anti-ADP antibody; assay: FP competition with 5-FAM-N6-ADP tracer and anti-ADP polyclonal antibody; type: binding, rabbit; conditions: 1 nM 5-FAM-N6-ADP tracer, 19 hours room temperature; read-out: half maximal point in the competition curve (IC50)
Reported IC50 values for a set of compounds
Numeric answer plus unit only.

# Compound, Measure, Reported measurement
rows = [
    ("Nc1ncnc2c1ncn2[C@@H]1O[C@H](COP(=O)(O)OP(=O)(O)O)[C@@H](O)[C@H]1O [ADP, adenosine diphosphate]", "IC50", "0.3 µM"),
]

So, Nc1ncnc2c1ncn2[C@@H]1O[C@H](COP(=O)(O)OP(=O)(O)OP(=O)(O)O)[C@@H](O)[C@H]1O [ATP, adenosine triphosphate] ? Its IC50 was 15 µM

* * *

Reported pIC50 values for a set of compounds
biological target: polyclonal antibody raised against a mixture of UTP and UDP conjugated to KLH (UGT-1); assay: Competitive FP displacement of UTP tracers from anti-UDP/UTP antibody by uridine nucleotides; format: binding, rabbit; details: Alexa 546 5-aminoallyl UTP tracer, UGT-1; read-out: IC50 for displacement of tracer from antibody
Scale: negative log10 of molar concentration, which is what pIC50 denotes.

# Compound, pIC50
data = [
    ("O=c1ccn([C@@H]2O[C@H](COP(=O)(O)OP(=O)(O)O)[C@@H](O)[C@H]2O)c(=O)[nH]1 [UDP]", 5.15),
]

Then this compound:
Observed pIC50 on polyclonal antibody raised against a mixture of UTP and UDP conjugated to KLH (UGT-1), entry O=C(O)[C@H]1O[C@H](OP(=O)(O)OP(=O)(O)OC[C@H]2O[C@@H](n3ccc(=O)[nH]c3=O)[C@H](O)[C@@H]2O)[C@H](O)[C@@H](O)[C@@H]1O [UDPGA, UDP-glucuronic acid] , equals 2.92

* * *

Biological target: polyclonal antibody raised against a mixture of UTP and UDP conjugated to KLH (UGT-1)
Test: Competitive FP displacement of UTP tracers from anti-UDP/UTP antibody by uridine nucleotides
Assay type: binding, rabbit
Conditions: 2 nM Alexa 488-5-aminoalkynyl-UTP tracer, UGT-1 antibody; read-out: IC50 for competing off the tracer
Procedure: To detect UGT catalytic activity a series of experiments were performed using the antibodies and tracers described above. […] Fluorescence polarization was read in a Tecan Ultra plate reader after several hours of equilibration at room temperature using a Ex485/Em535 filter set. […]
pIC50: −log10 of the molar value.
Measure: pIC50

Observed pIC50 on polyclonal antibody raised against a mixture of UTP and UDP conjugated to KLH (UGT-1), entry "O=C(O)[C@H]1O[C@H](OP(=O)(O)OP(=O)(O)OC[C@H]2O[C@@H](n3ccc(=O)[nH]c3=O)[C@H](O)[C@@H]2O)[C@H](O)[C@@H](O)[C@@H]1O" , equals ~2.70

* * *

molecular target: polyclonal antibody raised against a mixture of UTP and UDP conjugated to KLH (UGT-1); experiment: Competitive FP displacement of UTP tracers from anti-UDP/UTP antibody by uridine nucleotides; assay type: binding, rabbit; details: Alexa 568 5-aminoallyl UTP tracer, UGT-1; read-out: IC50 for displacement of tracer from antibody
Measure: IC50 (µM)
Number in µM, nothing else.

So, O=c1ccn([C@@H]2O[C@H](COP(=O)(O)OP(=O)(O)O)[C@@H](O)[C@H]2O)c(=O)[nH]1 [UDP] ? Its IC50 was 9

* * *

biological target: SULT1E1 (Homo sapiens); construct: made in house; host or cells: E. coli; assay: 35S-PAPS radioassay of SULT1E1 inhibition; type: biochemical; details: 35S-radioassay
Measure: pKi
Scale: negative log10 of molar concentration, which is what pKi denotes.

So, O=[N+]([O-])c1cc(Cl)c(O)c(Cl)c1 [DCNP, 2,6 Dichloro-4-nitrophenol] ? Its pKi was 1.96
